- Test system: OVCAR-4
- ASSAY_PROCEDURE: NCI tumour cell line growth inhibition, 48 h
Active and inactive are the calls of the source. No stated cut-off is given here; in the data, active = GI50 up to about 1.1 µM and inactive = higher.
Reported GI50 values for a set of molecules

Field: example entries. Status: answers known.
C/C(=C\c1ccccn1)c1ccccn1    > 100 µM (inactive)
COc1cc(OC)c2c(O)cc(CC(C)O)cc2c1 (stereo not given)    > 100 µM (inactive)
CC(=O)O[C@H]1C=CC23OC(=O)[C@]1(C)[C@H]2[C@H](C(=O)O)C12CC(=O)[C@@](CO)(CC[C@H]13)C2    > 100 µM (inactive)
COC(=O)C1C(/C=C/c2ccoc2)ON2CCC[C@@H]12 (stereo not given in full)    > 100 µM (inactive)
N=C(NC(=N)Nc1ccc(S(=O)(=O)Nc2cnc3ccccc3n2)cc1)Nc1ccc(Br)cc1    > 100 µM (inactive)
CC(=O)Oc1c(C)c2c(c3ccccc13)OC(C)(C)C2    16.1 µM (inactive)

Q. Endpoint output: GI50 of Fc1cccc(Cl)c1C1SCc2nc3ccccc3n21 (stereo not given) . Value?
A. 31.6 µM (inactive)

Q. Endpoint output: GI50 of Cc1csc2nc(-c3cccc([N+](=O)[O-])c3)c(/C=N/N=C(N)N)n12 . Value?
A. 1.78 µM (inactive)

Q. Endpoint output: GI50 of C[C@]12CC[C@H]3[C@@H](CCC4=C/C(=N/OCCN5CCCCC5)CC[C@@]43C)[C@@H]1CC[C@@H]2O . Value?
A. 13.9 µM (inactive)

Q. Endpoint output: GI50 of Cc1ccc2nnc(NS(=O)(=O)c3cc(C)c(Cl)cc3S)n2n1 . Value?
A. > 100 µM (inactive)

Entry source: ChEMBL document CHEMBL1201862
